test system: Ba/F3-Mock cells; test: Cell proliferation suppression test (CellTiter-Glo, GI50), Ba/F3-Mock; format: cell-based; details: Mus musculus, BaF3, 72 h, 5 ng/mL IL-3, 3 days, N=4
Hi! Could you tag entries with GI50 below 3000 nM as Met, and those at or above as Not met? Much appreciated.

1. COc1cc2ncnc(Nc3ccc(Oc4nc(-c5nnc(C6CC6)o5)cs4)cc3F)c2cc1NC(=O)/C=C/CN1CC[C@@H](OC)C1 = Met
2. C=CC(=O)N1CCC(Oc2cc3c(Nc4ccc(Oc5nc(-c6cnc(C)nc6)cs5)cc4F)ncnc3cc2OC)CC1 = Not met
3. C=CC(=O)N1CCC(Oc2cc3c(Nc4ccc(Oc5ccn(-c6cnc(C7CC7)nc6)n5)cc4F)ncnc3cc2OC)CC1 = Not met
4. C=CC(=O)N1CCC(Oc2cc3c(Nc4ccc(Oc5nc(C(=O)NC(C)(C)C)cs5)cc4F)ncnc3cc2OC)CC1 = Not met
5. C=CC(=O)N1CCC(Oc2cc3c(Nc4cc(F)c(Oc5ccn(C(=O)NC(C)(C)C)n5)cc4F)ncnc3cc2OC)CC1 = Not met
6. C=CC(=O)N1CCC(Oc2cc3c(Nc4ccc(Oc5ccn(-c6ccc(F)nc6)n5)cc4F)ncnc3cc2OC)CC1 = Not met
7. COc1cc2ncnc(Nc3ccc(Oc4nn(CC(=O)NC(C)(C)CF)cc4F)cc3Cl)c2cc1NC(=O)/C=C/CN(C)C = Not met
8. [2H]C([2H])([2H])Oc1cc2ncnc(Nc3ccc(Oc4ccn(C(=O)NC(C([2H])([2H])[2H])(C([2H])([2H])[2H])C([2H])([2H])[2H])n4)cc3F)c2cc1OC1CCN(C(=O)C=C)CC1 = Not met
9. COc1cc2ncnc(Nc3ccc(Oc4nc(CC(=O)NC(C)(C)C)cs4)cc3F)c2cc1NC(=O)/C=C/CN1CC[C@@H](OC)C1 = Not met
10. C=CC(=O)N1CCC(Oc2cc3c(Nc4ccc(Oc5ccn(-c6ccnc(F)c6)n5)cc4F)ncnc3cc2OC)CC1 = Not met
11. COc1cc2ncnc(Nc3ccc(Oc4nc(-c5nnc(C6CC6)o5)cs4)cc3F)c2cc1NC(=O)/C=C/CN1CC[C@@H](F)C1 = Met
12. C=CC(=O)N1CCC(Oc2cc3c(Nc4ccc(Oc5ccn(C(=O)NC(C)(C)C)n5)cc4F)ncnc3cc2OC)CC1 = Not met
13. C=CC(=O)N1CCC(Oc2cc3c(Nc4ccc(Oc5ccn(-c6ccc(C7CC7)nc6)n5)cc4F)ncnc3cc2OC)CC1 = Not met

* * *

tested on: Ba/F3-EGFR ins. ASV cells; test: Cell proliferation suppression test (CellTiter-Glo, GI50), Ba/F3-EGFR ins. ASV; format: cell-based; settings: Mus musculus, 72 h, 3 days, N=4
Labelling field: enter class 1 if recorded GI50 is less than 20 nM. Enter class 0 if it equals or exceeds that cut-off.

1) COc1cc2ncnc(Nc3ccc(Oc4nn(CC(=O)NC(C)(C)C)cc4F)cc3Cl)c2cc1NC(=O)/C=C/CN(C)C = class 1
2) COc1cc2ncnc(Nc3ccc(Oc4nc(C(=O)NC(C)(C)C)cs4)cc3F)c2cc1NC(=O)/C=C/CN(C)C = class 1
3) [2H]C([2H])([2H])Oc1cc2ncnc(Nc3ccc(Oc4ccn(C(=O)NC(C([2H])([2H])[2H])(C([2H])([2H])[2H])C([2H])([2H])[2H])n4)cc3F)c2cc1OC1CCN(C(=O)C=C)CC1 = class 1
4) [2H]C([2H])([2H])Oc1cc2ncnc(Nc3ccc(Oc4ccn(C(=O)NC(C)(C)C)n4)cc3F)c2cc1OC1CCN(C(=O)C=C)CC1 = class 1
5) C=CC(=O)N1CCC(Oc2cc3c(Nc4cc(F)c(Oc5ccn(C(=O)NC(C)(C)C)n5)cc4F)ncnc3cc2OC)CC1 = class 0

* * *

test system: Ba/F3-EGFR ins. ASV cells; assay: Cell proliferation suppression test (CellTiter-Glo, GI50), Ba/F3-EGFR ins. ASV; assay type: cell-based; details: Mus musculus, 72 h, 3 days, N=4
measured.quantity: GI50 (nM)

1. C=CC(=O)N1CCC(Oc2cc3c(Nc4ccc(Oc5ccn(-c6ccc(C)nc6)n5)cc4F)ncnc3cc2OC)CC1 = 12.4
2. COc1cc2ncnc(Nc3ccc(Oc4nn(CC(=O)NC(C)(C)C)cc4F)cc3Cl)c2cc1NC(=O)/C=C/CN1CC[C@H](F)C1 = 8.5
3. C=CC(=O)N1CCC(Oc2cc3c(Nc4ccc(Oc5ccn(C(=O)NC6(C(F)(F)F)CC6)n5)cc4F)ncnc3cc2OC)CC1 = 14.5
4. C=CC(=O)N1CCC(Oc2cc3c(Nc4ccc(Oc5ccn(-c6ccnc(OC)c6)n5)cc4F)ncnc3cc2OC)CC1 = 17.1

* * *

system: Ba/F3-EGFR ins. SVD cells; assay: Cell proliferation suppression test (CellTiter-Glo, GI50), Ba/F3-EGFR ins. SVD; assay type: cell-based; conditions: Mus musculus, 72 h, 3 days, N=4
measured.quantity: GI50 (nM)

1. C=CC(=O)N1CCC(Oc2cc3c(Nc4ccc(Oc5ccn(-c6ccnc(Cl)c6)n5)cc4F)ncnc3cc2OC)CC1 [Example 29] = 7.9
2. COc1cc2ncnc(Nc3ccc(Oc4nn(CC(=O)NC(C)(C)C)cc4F)cc3Cl)c2cc1NC(=O)/C=C/CN1CCOCC1 [Example 54] = 50.6
3. C=CC(=O)N1CCC(Oc2cc3c(Nc4cc(F)c(Oc5ccn(C(=O)NC(C)(C)C)n5)cc4F)ncnc3cc2OC)CC1 [Example 7] = 19.6
4. COc1cc2ncnc(Nc3ccc(Oc4cccc(-c5nnc(C)s5)c4)cc3F)c2cc1NC(=O)/C=C/CN(C)C [Example 44] = 52.2
5. C=CC(=O)N1CCC(Oc2cc3c(Nc4ccc(Oc5nc(-c6ccc(C)nc6)cs5)cc4F)ncnc3cc2OC)CC1 [Example 37] = 5.7
6. C=CC(=O)N1CCC(Oc2cc3c(Nc4ccc(Oc5nc(-c6nnc(C(C)C)o6)cs5)cc4F)ncnc3cc2OC)CC1 [Example 33] = 5.8
7. COc1cc2ncnc(Nc3ccc(Oc4nc(CC(=O)NC(C)(C)C)cs4)cc3F)c2cc1NC(=O)/C=C/CN1CC[C@@H](OC)C1 [Example 61] = 88.1

* * *

Below is a list of entries, each paired with its recorded GI50 value.
system: Ba/F3-EGFR WT cells; assay: Cell proliferation suppression test (CellTiter-Glo, GI50), Ba/F3-EGFR WT; assay type: cell-based; settings: Mus musculus, 72 h, 100 ng/mL EGF, 3 days, N=4
measured.quantity: GI50 (nM)

1) C=CC(=O)N1CCC(Oc2cc3c(Nc4ccc(Oc5nc(-c6nnc(C(C)C)o6)cs5)cc4F)ncnc3cc2OC)CC1 [Example 33] = 163
2) COc1cc2ncnc(Nc3ccc(Oc4nn(CC(=O)NC(C)(C)C)cc4F)cc3Cl)c2cc1NC(=O)/C=C/CN(C)C [Example 45] = 412
3) C=CC(=O)N1CCC(Oc2cc3c(Nc4ccc(Oc5nc(-c6cnc(C)c(Cl)c6)cs5)cc4F)ncnc3cc2OC)CC1 [Example 12] = 646
4) C=CC(=O)N1CCC(Oc2cc3c(Nc4ccc(Oc5cccc(-c6cn(C)nn6)c5)cc4F)ncnc3cc2OC)CC1 [Example 2] = 123
5) C=CC(=O)N1CCC(Oc2cc3c(Nc4ccc(Oc5ccn(C(=O)NC6(C)CC6)n5)cc4F)ncnc3cc2OC)CC1 [Example 8] = 172
6) CCc1nnc(-c2cccc(Oc3ccc(Nc4ncnc5cc(OC)c(NC(=O)/C=C/CN(C)C)cc45)c(F)c3)c2)o1 [Example 41] = 114
7) COc1cc2ncnc(Nc3ccc(Oc4nn(CC(=O)NC(C)(C)C)cc4F)cc3F)c2cc1NC(=O)/C=C/CN1CCC(F)C1 (racemic) [Example 58] = 252
8) C=CC(=O)N1CCC(Oc2cc3c(Nc4ccc(Oc5cccc(-c6nnc(C)o6)c5)cc4Cl)ncnc3cc2OC)CC1 [Example 13] = 854
9) COc1cc2ncnc(Nc3ccc(Oc4nn(CC(=O)NC(C)(C)C)cc4F)cc3F)c2cc1NC(=O)/C=C/CN(C)C [Example 46] = 261
10) C=CC(=O)N1CCC(Oc2cc3c(Nc4ccc(Oc5cccc(-c6cn(C)nn6)c5)cc4Cl)ncnc3cc2OC)CC1 [Example 3] = 370
11) COc1cc2ncnc(Nc3ccc(Oc4cccc(-c5nnc(C)o5)c4)cc3F)c2cc1NC(=O)/C=C/CN1CCCC1 [Example 50] = 240
12) [2H]C([2H])([2H])Oc1cc2ncnc(Nc3ccc(Oc4ccn(C(=O)NC(C([2H])([2H])[2H])(C([2H])([2H])[2H])C([2H])([2H])[2H])n4)cc3F)c2cc1OC1CCN(C(=O)C=C)CC1 [Example 21] = 129
13) C=CC(=O)N1CCC(Oc2cc3c(Nc4ccc(Oc5cccc(-c6nnc(C)o6)c5)cc4F)ncnc3cc2OC)CC1 [Example 17] = 186
